Data provenance is paper PMC6362118.

Assayed Target: CDC25A (Homo sapiens, UniProt P30304)
Construct: GST (pGEX vector) (N)
Sequence (P30304 1-524): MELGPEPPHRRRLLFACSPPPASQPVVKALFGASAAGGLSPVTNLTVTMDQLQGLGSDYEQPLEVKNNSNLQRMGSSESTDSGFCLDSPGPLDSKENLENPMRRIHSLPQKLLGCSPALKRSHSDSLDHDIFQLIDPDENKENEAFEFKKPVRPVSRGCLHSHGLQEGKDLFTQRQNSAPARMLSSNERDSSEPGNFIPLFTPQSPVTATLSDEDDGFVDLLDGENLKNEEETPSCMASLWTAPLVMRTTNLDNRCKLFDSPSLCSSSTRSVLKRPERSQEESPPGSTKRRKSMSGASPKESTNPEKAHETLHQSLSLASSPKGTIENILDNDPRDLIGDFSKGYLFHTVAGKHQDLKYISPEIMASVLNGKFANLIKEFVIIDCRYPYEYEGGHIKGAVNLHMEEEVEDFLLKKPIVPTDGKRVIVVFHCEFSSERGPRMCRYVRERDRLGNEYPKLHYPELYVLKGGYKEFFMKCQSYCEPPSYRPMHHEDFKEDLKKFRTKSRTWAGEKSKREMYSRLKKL
Experimental Details: Enzymatic assay (OMFP substrate) on recombinant CDC25A
Measurement Parameters: dose-response on recombinant CDC25A
Catalogue of IC50 readings, one per entry.

{"Compound": "Cc1ccc(SC2=CC(=O)c3cccc(O)c3C2=O)cc1 [UPD-793, 3-(p-tolylthio)juglone]", "IC50": "920 nM"}
{"Compound": "O=C1C=C(c2ccc(O)cc2O)C(=O)c2c(O)cccc21 [UPD-140]", "IC50": "1420 nM"}
{"Compound": "O=C1C=C(c2ccc(O)c(O)c2O)C(=O)c2c(O)cccc21 [UPD-786]", "IC50": "890 nM"}
{"Compound": "COc1cccc(SC2=CC(=O)c3cccc(O)c3C2=O)c1 [UPD-795]", "IC50": "1250 nM"}
